Hey, just so you know, these numbers are from patent US20020028807A1.

- subject of test: HIV-1 RT K103N/L100I (Human immunodeficiency virus type 1 group M subtype B, UniProt P03366, K702N/L699I)
- Construct: an HIV RT clone pKRT2 containing only the RT p66 gene regulated by the lac operon/trc promoter
- test details: Reverse transcriptase (RT) assay, K103N/L100I mutant
assay metric: IC50 (nM)
# number only, unit nM dropped from output

Task item: Entry `Cc1cc(F)nc2c1NC(=O)c1cc(CCOc3ccnc4ccccc34)cnc1N2C1CC1` : reported IC50 = ?
Reply: 98

* * *

- subject of test: HIV-1 RT K103N/L100I (Human immunodeficiency virus type 1 group M subtype B, UniProt P03366, K702N/L699I)
- Construct: an HIV RT clone pKRT2 containing only the RT p66 gene regulated by the lac operon/trc promoter
- test details: Reverse transcriptase (RT) assay, K103N/L100I mutant
# note: boundary value 100 nM maps to NOT MET; IC50 below it maps to MET

Some entries whose results are on file:
Task item: Is IC50 of CCN1c2ncc(CCOc3cc[n+]([O-])c4ccccc34)cc2C(=O)Nc2c(C)cc(Cl)nc21 [compound 14] strictly below 100 nM?
Reply: MET

Task item: Is IC50 of CCN1c2ncc(CCOc3cc[n+]([O-])c4ccccc34)cc2C(=O)N(C)c2ccc(C)nc21 [compound 28] strictly below 100 nM?
Reply: MET

Task item: Is IC50 of CCN1c2ncc(CCOc3cc[n+]([O-])c4ccccc34)cc2C(=O)N(C)c2ccc(Cl)nc21 [compound 17] strictly below 100 nM?
Reply: MET

Task item: Is IC50 of CCN1c2ncc(CCOc3cccc4ncccc34)cc2C(=O)Nc2c(C)cc(Cl)nc21 [compound 25] strictly below 100 nM?
Reply: MET

Task item: Is IC50 of CCN1c2ncc(CCOc3ccnc4ccccc34)cc2C(=O)Nc2c(C)cc(Cl)nc21 [compound 1] strictly below 100 nM?
Reply: MET

Attention now shifts to the item below.
Task item: Is IC50 of CCN1c2ncc(CCOc3ccnc4ccccc34)cc2C(=O)N(C)c2ccc(F)nc21 [compound 4] strictly below 100 nM?
Reply: NOT MET

* * *

This section presents compounds with their documented IC50 values.
- subject of test: HIV-1 RT G190A (Human immunodeficiency virus type 1 group M subtype B, UniProt P03366, G789A)
- Construct: an HIV RT clone pKRT2 containing only the RT p66 gene regulated by the lac operon/trc promoter; made in house; host or cells: E. coli JM109, vector pKK233-2
- test details: Reverse transcriptase (RT) assay, G190A mutant
- Assay type: biochemical
- From the text: Among the enzymes for which Human Immunodeficiency Virus (HIV-1) encodes is a reverse transcriptase (1), so-named because it transcribes a DNA copy from an RNA template. This activity can be quantitatively measured in a cell-free enzyme assay and is based upon the observation that reverse transcriptase is able to use a synthetic template poly r(C) primed with a biotinylated oligo d(G) to transcribe a radio-labelled DNA strand utilising 3H-dGTP as a substrate. […]
# number only, unit nM dropped from output

Illustrative cases are given below, each with its answer.
Task item: Entry `CCN1c2ncc(CCOc3cc[n+]([O-])c4ccccc34)cc2C(=O)N(C)c2ccc(C)nc21` : reported IC50 = ?
Reply: 25

Task item: Entry `CCN1c2ncc(CCOc3cc[n+]([O-])c4ccccc34)cc2C(=O)N(C)c2cccnc21` : reported IC50 = ?
Reply: 26

New cases:
Task item: Entry `CCN1c2ncc(CCOc3ccnc4ccccc34)cc2C(=O)N(C)c2cccnc21` : reported IC50 = ?
Reply: 25

Task item: Entry `CCN1c2ncc(CCOc3cc[n+]([O-])c4ccccc34)cc2C(=O)N(C)c2ccc(F)nc21` : reported IC50 = ?
Reply: 19

Task item: Entry `CCN1c2ncc(CCOc3ccnc4ccccc34)cc2C(=O)N(C)c2ccc(Cl)nc21` : reported IC50 = ?
Reply: 14.5

Task item: Entry `CCN1c2ncc(CCOc3cc[n+]([O-])c4ccccc34)cc2C(=O)N(C)c2ccc(Cl)nc21` : reported IC50 = ?
Reply: 25

* * *

- subject of test: HIV-1 RT K103N/Y181C (Human immunodeficiency virus type 1 group M subtype B, UniProt P03366, K702N/Y780C)
- Construct: an HIV RT clone pKRT2 containing only the RT p66 gene regulated by the lac operon/trc promoter
- test details: Reverse transcriptase (RT) assay, K103N/Y181C mutant
assay metric: log10 IC50 (log10 of the value in nM)
The base-10 logarithm of IC50, taken with IC50 in nM, is what appears here.

Illustrative cases are given below, each with its answer.
Task item: Entry `CCN1c2ncc(CCOc3ccnc4ccccc34)cc2C(=O)N(C)c2ccc(F)nc21` : reported log10 IC50 = ?
Reply: 1.72

Task item: Entry `CCN1c2ncc(CCOc3cc[n+]([O-])c4ccccc34)cc2C(=O)Nc2c(C)cc(Cl)nc21` : reported log10 IC50 = ?
Reply: 1.79

Task item: Entry `CCN1c2ncc(CCOc3cccc4ncccc34)cc2C(=O)Nc2c(C)cc(Cl)nc21` : reported log10 IC50 = ?
Reply: 1.81

Task item: Entry `CCN1c2nc(Cl)ccc2NC(=O)c2cc(CCOc3cc[n+]([O-])c4ccccc34)cnc21` : reported log10 IC50 = ?
Reply: 2.53

Task item: Entry `CCN1c2ncc(CCOc3cc[n+]([O-])c4ccccc34)cc2C(=O)Nc2c(C)cc(F)nc21` : reported log10 IC50 = ?
Reply: 2.24

Task item: Entry `CCN1c2ncc(CCOc3cccc4c3ccc[n+]4[O-])cc2C(=O)N(C)c2ccc(F)nc21` : reported log10 IC50 = ?
Reply: 2.16

Task item: Entry `CCN1c2ncc(CCOc3ccnc4ccccc34)cc2C(=O)N(C)c2cccnc21` : reported log10 IC50 = ?
Reply: 1.85

Task item: Entry `CCN1c2ncc(CCOc3cc[n+]([O-])c4ccccc34)cc2C(=O)Nc2c(C)ccnc21` : reported log10 IC50 = ?
Reply: 2.33

Task item: Entry `CCN1c2ncc(CCOc3cc[n+]([O-])c4ccccc34)cc2C(=O)N(C)c2ccc(Cl)nc21` : reported log10 IC50 = ?
Reply: 1.68

Task item: Entry `CCN1C(=O)c2cc(CCOc3ccnc4ccccc34)cnc2N(CC)c2ncccc21` : reported log10 IC50 = ?
Reply: 2.30

New cases:
Task item: Entry `CCN1c2ncc(CCOc3cccc4c3ccc[n+]4[O-])cc2C(=O)Nc2c(C)cc(F)nc21` : reported log10 IC50 = ?
Reply: 2.39

Task item: Entry `CCN1c2ncc(CCOc3cc[n+]([O-])c4ccccc34)cc2C(=O)N(C)c2cccnc21` : reported log10 IC50 = ?
Reply: 1.98

Task item: Entry `CCN1c2ncc(CCOc3ccnc4ccccc34)cc2C(=O)Nc2c(C)ccnc21` : reported log10 IC50 = ?
Reply: 2.48

Task item: Entry `Cc1ccnc2c1NC(=O)c1cc(CCOc3cc[n+]([O-])c4ccccc34)cnc1N2C1CC1` : reported log10 IC50 = ?
Reply: 3.18

Task item: Entry `CCN1c2ncc(CCOc3ccnc4ccccc34)cc2C(=O)Nc2c(C)cc(F)nc21` : reported log10 IC50 = ?
Reply: 2.30

* * *

- subject of test: HIV-1 RT Y188C (Human immunodeficiency virus type 1 group M subtype B, UniProt P03366, Y787C)
- Construct: an HIV RT clone pKRT2 containing only the RT p66 gene regulated by the lac operon/trc promoter
- test details: Reverse transcriptase (RT) assay, Y188C mutant
assay metric: IC50 (nM)
# number only, unit nM dropped from output

Task item: Entry CCN1c2ncc(CCOc3cc[n+]([O-])c4ccccc34)cc2C(=O)N(C)c2ccc(C)nc21 [compound 28] : reported IC50 = ?
Reply: 9

Task item: Entry CCN1c2ncc(CCOc3cc[n+]([O-])c4ccccc34)cc2C(=O)N(C)c2cccnc21 [compound 21] : reported IC50 = ?
Reply: 9.9

Task item: Entry CCN1c2ncc(CCOc3cc[n+]([O-])c4ccccc34)cc2C(=O)N(C)c2ccc(F)nc21 [compound 11] : reported IC50 = ?
Reply: 6.6

New cases:
Task item: Entry CCN1C(=O)c2cc(CCOc3ccnc4ccccc34)cnc2N(CC)c2ncccc21 [compound 26] : reported IC50 = ?
Reply: 147

Task item: Entry CCN1c2ncc(CCOc3ccnc4ccccc34)cc2C(=O)N(C)c2ccc(Cl)nc21 [compound 2] : reported IC50 = ?
Reply: 7.1

Task item: Entry CCN1c2ncc(CCOc3cc[n+]([O-])c4ccccc34)cc2C(=O)N(C)c2ccc(Cl)nc21 [compound 17] : reported IC50 = ?
Reply: 8.1

* * *

- subject of test: HIV-1 RT K103N (Human immunodeficiency virus type 1 group M subtype B, UniProt P03366, K702N)
- Construct: an HIV RT clone pKRT2 containing only the RT p66 gene regulated by the lac operon/trc promoter; made in house; host or cells: E. coli JM109, vector pKK233-2
- test details: Reverse transcriptase (RT) assay, K103N mutant
- Format: biochemical
# note: boundary value 40 nM maps to no (0); IC50 below it maps to yes (1)

Some entries whose results are on file:
Task item: Is IC50 of `Cc1ccnc2c1NC(=O)c1cc(CCOc3cc[n+]([O-])c4ccccc34)cnc1N2C1CC1` strictly below 40 nM?
Reply: no (0)

Task item: Is IC50 of `CCN1c2ncc(CCOc3cc[n+]([O-])c4ccccc34)cc2C(=O)Nc2c(C)cc(Cl)nc21` strictly below 40 nM?
Reply: yes (1)

Task item: Is IC50 of `CCN1c2ncc(CCOc3cc[n+]([O-])c4ccccc34)cc2C(=O)N(C)c2cccnc21` strictly below 40 nM?
Reply: no (0)

Task item: Is IC50 of `CCN1c2ncc(CCOc3ccnc4ccccc34)cc2C(=O)Nc2c(C)cc(Cl)nc21` strictly below 40 nM?
Reply: yes (1)

New cases:
Task item: Is IC50 of `CCN1c2ncc(CCOc3ccnc4ccccc34)cc2C(=O)N(C)c2ccc(F)nc21` strictly below 40 nM?
Reply: yes (1)

Task item: Is IC50 of `CCN1c2ncc(CCOc3cc[n+]([O-])c4ccccc34)cc2C(=O)Nc2c(C)cc(F)nc21` strictly below 40 nM?
Reply: yes (1)

Task item: Is IC50 of `CCN1c2ncc(CCOc3cc[n+]([O-])c4ccccc34)cc2C(=O)Nc2c(C)ccnc21` strictly below 40 nM?
Reply: yes (1)

Task item: Is IC50 of `CN1C(=O)c2cc(CCOc3cc[n+]([O-])c4ccccc34)cnc2N(C2CC2)c2nc(Cl)ccc21` strictly below 40 nM?
Reply: no (0)

Task item: Is IC50 of `Cc1cc(F)nc2c1NC(=O)c1cc(CCOc3ccnc4ccccc34)cnc1N2C1CC1` strictly below 40 nM?
Reply: yes (1)
